Ref: patent US20120157452A1

Biological target: V600E full-length B-Raf (Homo sapiens, UniProt P15056, V600E)
Construct: made in house; host or cells: Sf9 insect cells (baculovirus)
Sequence (P15056 whole entry V600E): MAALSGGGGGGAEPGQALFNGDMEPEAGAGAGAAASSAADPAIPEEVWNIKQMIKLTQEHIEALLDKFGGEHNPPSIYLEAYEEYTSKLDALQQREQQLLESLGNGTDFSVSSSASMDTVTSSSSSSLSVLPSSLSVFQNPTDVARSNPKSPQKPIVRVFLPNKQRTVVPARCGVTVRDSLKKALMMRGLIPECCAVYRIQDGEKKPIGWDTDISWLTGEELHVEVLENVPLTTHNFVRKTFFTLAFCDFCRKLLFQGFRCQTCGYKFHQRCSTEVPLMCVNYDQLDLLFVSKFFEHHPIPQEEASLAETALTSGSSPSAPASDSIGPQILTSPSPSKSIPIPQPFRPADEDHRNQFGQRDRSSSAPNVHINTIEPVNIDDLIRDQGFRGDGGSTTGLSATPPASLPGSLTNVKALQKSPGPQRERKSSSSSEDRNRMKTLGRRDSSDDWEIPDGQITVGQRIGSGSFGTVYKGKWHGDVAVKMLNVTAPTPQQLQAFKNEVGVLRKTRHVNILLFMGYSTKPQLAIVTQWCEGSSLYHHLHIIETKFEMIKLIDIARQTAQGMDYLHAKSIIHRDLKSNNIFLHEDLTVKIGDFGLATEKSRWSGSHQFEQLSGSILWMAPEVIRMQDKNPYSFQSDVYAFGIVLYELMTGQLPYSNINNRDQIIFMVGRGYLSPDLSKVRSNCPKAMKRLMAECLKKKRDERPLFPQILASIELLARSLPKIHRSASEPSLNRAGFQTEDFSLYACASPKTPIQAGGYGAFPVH
Assay: B-Raf IC50 assay: incorporation of radio labeled phosphate from [γ-33P]ATP into FSBA-modified wild-type MEK
Assay type: biochemical
Details: 4 μM ATP, 60-minute incubation, representative data of multiple tests
recorded.endpoint: IC50 (nM)

Solved entries (count: 3):
{"compound.string": "COc1n[nH]c2ncc(NC(=O)c3cc(OCc4ccccc4)ccc3F)cc12", "experimental.value": 55.8}
{"compound.string": "COc1n[nH]c2ncc(NC(=O)c3c(Cl)ccc(OCc4ccc(Br)cc4)c3F)cc12", "experimental.value": 1.68}
{"compound.string": "COc1n[nH]c2ncc(NC(=O)c3c(Cl)ccc(OCc4ccc(CN5CCOCC5)cc4)c3F)cc12", "experimental.value": 139}

[I] O=C(Nc1cnc2[nH]nc(-c3ccco3)c2c1)c1c(Cl)ccc(OCc2ccccc2)c1F
[II] COc1n[nH]c2ncc(NC(=O)c3c(Cl)ccc(OCc4ccc(Cl)cc4)c3F)cc12
[III] COc1n[nH]c2ncc(NC(=O)c3c(Cl)ccc(OCc4cncnc4)c3F)cc12
Asked: Hey, can you sort those compounds up there by IC50, smallest first? Enter labels, ranked according to the request.
Given back: II, I, III
(II: 0.74 nM, I: 1.17 nM, III: 658 nM)

---

Target: V600E full-length B-Raf (Homo sapiens, UniProt P15056, V600E)
Construct: made in house; host or cells: Sf9 insect cells (baculovirus)
Assay: B-Raf IC50 assay: incorporation of radio labeled phosphate from [γ-33P]ATP into FSBA-modified wild-type MEK
Format: biochemical
Details: 4 μM ATP, 60-minute incubation, representative data of multiple tests
pIC50: −log10 of the molar value.
recorded.endpoint: pIC50

Solved entries (count: 9):
{"compound.string": "COc1n[nH]c2ncc(NC(=O)c3c(Cl)ccc(OCc4ccccc4F)c3F)cc12", "pIC50": 9.36}
{"compound.string": "COc1n[nH]c2ncc(NC(=O)c3c(F)cc(F)c(OCc4ccccc4)c3F)cc12", "pIC50": 7.46}
{"compound.string": "CN(C)c1n[nH]c2ncc(NC(=O)c3c(Cl)ccc(OCc4ccccc4)c3F)cc12", "pIC50": 8.32}
{"compound.string": "O=C(Nc1cnc2[nH]nc(OCCO)c2c1)c1c(Cl)ccc(OCc2ccccc2)c1F", "pIC50": 8.58}
{"compound.string": "CCc1ccc(COc2ccc(Cl)c(C(=O)Nc3cnc4[nH]nc(OC)c4c3)c2F)cc1", "pIC50": 8.83}
{"compound.string": "COc1n[nH]c2ncc(NC(=O)c3c(Cl)ccc(OCc4ccc(Cl)cc4F)c3F)cc12", "pIC50": 8.82}
{"compound.string": "COc1n[nH]c2ncc(NC(=O)c3cc(OCc4ccccc4)ccc3Cl)cc12", "pIC50": 8.40}
{"compound.string": "COc1n[nH]c2ncc(NC(=O)c3c(C)ccc(OCc4ccccc4)c3F)cc12", "pIC50": 8.97}
{"compound.string": "COc1n[nH]c2ncc(NC(=O)c3c(Cl)ccc(OCc4ccc(C)nc4)c3F)cc12", "pIC50": 8.22}

[A] COc1n[nH]c2ncc(NC(=O)c3c(Cl)ccc(OCc4ccncc4)c3F)cc12
[B] COc1n[nH]c2ncc(NC(=O)c3c(Cl)ccc(OCc4ccc(C)cc4)c3F)cc12
Asked: Looking only at measured pIC50, which entry is lower, A or B ? Mark your answer with the label of the selected entry.
Given back: A
(A: 7.19, B: 9.25)
